Provenance of the data: patent US20230365553A1

- tested system: STING (Homo sapiens, UniProt Q86WV6, G230A/H232R/R293Q/R71H)
- Sequence (Q86WV6 whole entry R71H/G230A/H232R/R293Q): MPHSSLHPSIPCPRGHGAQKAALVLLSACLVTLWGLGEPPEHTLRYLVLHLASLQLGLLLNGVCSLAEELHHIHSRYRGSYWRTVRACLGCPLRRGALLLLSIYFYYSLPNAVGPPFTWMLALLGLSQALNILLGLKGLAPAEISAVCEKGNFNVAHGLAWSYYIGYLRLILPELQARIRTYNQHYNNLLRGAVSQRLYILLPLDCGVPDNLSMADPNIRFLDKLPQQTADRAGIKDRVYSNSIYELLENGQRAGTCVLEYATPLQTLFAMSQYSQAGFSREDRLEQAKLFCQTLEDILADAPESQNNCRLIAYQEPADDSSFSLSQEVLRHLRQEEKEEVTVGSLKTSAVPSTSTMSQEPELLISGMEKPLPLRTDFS
- assay remarks: STING reporter assay: luciferase reporter activity in THP1-Dual KO-IFNAR2 cells stimulated with 2′3′cGAMP
- measurement conditions: 15 μM 2′3′cGAMP, 24h, read-out: hSTING EC50
recorded metric: EC50

O=C(Nc1c[nH]c2ccc(-c3cnn(-c4ccc(C(F)(F)F)cc4)c3)cc12)C1CN(CC(F)(F)F)C1 [Compound 247]: 200 to 1000 nM
N#CC1(C(=O)Nc2c[nH]c3ccc(-c4cnn(-c5ccc(C(F)(F)F)cc5)c4)cc23)CCC1 [Compound 229]: 1000 to 5000 nM
CC(=O)N(C)c1c[nH]c2ccc(-c3cnn(-c4ccc(C(F)(F)F)cc4)c3)cc12 [Compound 246]: 5000 to 100000 nM

Now take the following molecule into account.
(Q) GET /values?readout=EC50&system=STING (Homo sapiens, UniProt Q86WV6, G230A/H232R/R293Q/R71H)&item= O=C(Nc1c[nH]c2ccc(-c3cnn(-c4ccc(C(F)(F)F)cc4)c3)cc12)c1cocn1 [Compound 267]
(A) 200 to 1000 nM
